assay_explanation: qHTS assay to identify small molecule agonists of the endoplasmic reticulum stress response signaling pathway (AID 1159516)
measurement_parameters: ESRE-bla HeLa, ER stress beta-lactamase reporter, 5 h; series mostly up to 61 µM
From the text: National Center for Advancing Translational Sciences [NCATS] NIH Chemical Genomics Center [NCGC] U.S. Environmental Protection Agency [EPA] National Institutes of Environmental Health Sciences [NIEHS] National Toxicology Program [NTP] U.S. Food and Drug Administration [FDA] Endoplasmic Reticulum (ER) plays an important role in cellular signaling, protein folding/maturation, stress response, lipid biosynthesis, calcium storage and release etc. […]
Inconclusive results are not listed. Calls of active or inactive are those of the source. The call rests on the fitted dose curve; in most records, active means well fitted activation curve with a large enough effect in the signal ratio in the repeat runs (not every such curve was filed as active); inconclusive means weak or mixed curves, or effect the other way; inactive means flat fitted curve, though single readings scatter; the % refers to the signal ratio.
measurement_name: outcome

QUERY: Tell me the measured outcome of "O=C(Cc1ccccc1)OCc1ccccc1" , please.
RESULT: inactive

QUERY: Tell me the measured outcome of CC(CCc1ccccc1)NC(C)C(O)c1ccc(O)cc1 (stereo not given) , please.
RESULT: inactive

QUERY: Tell me the measured outcome of C(CCOCC1CO1)COCC1CO1 (stereo not given) , please.
RESULT: inactive

QUERY: Tell me the measured outcome of "ClC(Cl)C(Cl)Cl" , please.
RESULT: inactive

QUERY: Tell me the measured outcome of COC(=O)C(c1ccccc1)C1CCCCN1 (stereo not given) , please.
RESULT: inactive

Continuing:
QUERY: Tell me the measured outcome of "CC(=O)C(Cl)Cl" , please.
RESULT: inactive

QUERY: Tell me the measured outcome of C=CC1CC=CCC1 (stereo not given) , please.
RESULT: inactive

---

tested_target: Voltage-gated inwardly rectifying potassium channel KCNH2 (Homo sapiens) (UniProt Q12809)
Sequence (Q12809 whole entry, looked up): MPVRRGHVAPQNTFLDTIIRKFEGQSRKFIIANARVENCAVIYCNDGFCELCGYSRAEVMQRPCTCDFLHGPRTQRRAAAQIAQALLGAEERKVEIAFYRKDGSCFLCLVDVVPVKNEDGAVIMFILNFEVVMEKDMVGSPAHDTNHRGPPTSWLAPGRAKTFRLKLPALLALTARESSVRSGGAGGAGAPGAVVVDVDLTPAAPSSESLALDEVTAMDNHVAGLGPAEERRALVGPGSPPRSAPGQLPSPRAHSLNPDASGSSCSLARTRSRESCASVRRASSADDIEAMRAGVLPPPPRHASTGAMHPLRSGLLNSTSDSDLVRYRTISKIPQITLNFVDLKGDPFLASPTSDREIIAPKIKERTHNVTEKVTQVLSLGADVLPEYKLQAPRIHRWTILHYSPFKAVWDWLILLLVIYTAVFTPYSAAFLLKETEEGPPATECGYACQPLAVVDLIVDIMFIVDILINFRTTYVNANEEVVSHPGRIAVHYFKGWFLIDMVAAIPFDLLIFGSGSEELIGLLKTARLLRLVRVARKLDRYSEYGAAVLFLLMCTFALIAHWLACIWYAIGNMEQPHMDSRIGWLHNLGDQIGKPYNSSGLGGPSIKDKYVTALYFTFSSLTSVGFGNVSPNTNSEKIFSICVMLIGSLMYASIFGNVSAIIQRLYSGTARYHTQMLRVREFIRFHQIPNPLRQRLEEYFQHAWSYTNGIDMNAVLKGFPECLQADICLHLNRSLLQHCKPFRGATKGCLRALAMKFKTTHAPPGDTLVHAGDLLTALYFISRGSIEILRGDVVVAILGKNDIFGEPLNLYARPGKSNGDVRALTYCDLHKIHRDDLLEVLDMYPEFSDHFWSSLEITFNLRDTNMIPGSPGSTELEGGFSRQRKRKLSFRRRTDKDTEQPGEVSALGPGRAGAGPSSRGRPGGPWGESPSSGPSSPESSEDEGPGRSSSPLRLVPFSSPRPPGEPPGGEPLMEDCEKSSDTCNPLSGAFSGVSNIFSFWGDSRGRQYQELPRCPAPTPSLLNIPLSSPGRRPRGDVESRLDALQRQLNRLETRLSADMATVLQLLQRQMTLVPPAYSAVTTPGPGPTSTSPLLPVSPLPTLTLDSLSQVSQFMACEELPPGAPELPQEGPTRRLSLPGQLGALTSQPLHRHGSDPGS
assay_explanation: Human Ether-a-go-go-Related Gene (hERG) channel small molecule antagonists: fluorescence cell-based qHTS assay (AID 1671200);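 further: hERG-expressing U2OS cells given a thallium stimulus after FluxOR II dye loading; nearly all actives have a fitted effect of over 50% in size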
measurement_parameters: hERG-U2OS cells, FluxOR thallium flux fluorescence; series mostly up to 76.8 µM
Inconclusive results are not listed. The source made the active and inactive calls. Calls follow the shape of the dose curve; as a rule, active = well fitted inhibition curve with a large enough effect in the repeat runs; inconclusive = weak or mixed curves; inactive = flat fitted curve, though single readings scatter.
Tick one outcome: active, inactive

The examples below pair each entry with its known result.
QUERY: // param item: CC(C)(C)C(=O)C(Oc1ccc(Cl)cc1)n1cncn1 (stereo not drawn) ; yields the recorded call
RESULT: inactive

QUERY: // param item: "CNC(=O)Oc1ccccc1C1OCCO1" ; yields the recorded call
RESULT: inactive

QUERY: // param item: CC1CCCCC1NC(=O)Nc1ccccc1 (stereo not drawn) ; yields the recorded call
RESULT: inactive

Continuing:
QUERY: // param item: "Nc1cc(Cl)ccc1O" ; yields the recorded call
RESULT: inactive

---

assay_explanation: qHTS assay to identify small molecule antagonists of the estrogen related receptor signaling pathway with the pleiotropic PPARgamma coactivator (PGC) from Tox21 10K library - cell viability counter screen (AID 1224840); further: nearly all actives have a fitted effect of over 40% in size
measurement_parameters: PGC/ERR reporter cells viability, CellTiter-Fluor, 17.5 h; series mostly up to 92.4 µM
Records with an inconclusive call do not appear. Active and inactive are the calls of the source. Calls come from the whole dose curve; as a rule, active = well fitted cell-killing curve with a large enough effect in the repeat runs (not every such curve was filed as active); inconclusive = weak or mixed curves, or effect the other way; inactive = no such curve, though single readings can be large or run the other way.
measurement_name: outcome

QUERY: Tell me the measured outcome of "ClC(Cl)(Cl)C(Cl)(Cl)Cl" , please.
RESULT: inactive

QUERY: Tell me the measured outcome of "c1coc(-c2nc3ccccc3[nH]2)c1" , please.
RESULT: inactive

QUERY: Tell me the measured outcome of "O=P(O)(Oc1ccccc1)Oc1ccccc1" , please.
RESULT: inactive

Origin of values: PubChem BioAssay (Tox21)
